Origin of values: patent US20090118331A1

# TEST_SUMMARY: in vivo
# TEST_PARAMETERS: male, rat, in vivo, po, 20 mg/kg
# Procedure: Here, serial doses of lobeline were administered to male and female rats intravenously, subcutaneously or orally, and the pharmacokinetic profiles of the parent lobeline and its epimer were monitored in plasma.
MEASURE_NAME: Cmax (ng/mL)
Record the value in ng/mL, omitting the unit from your answer.

Any idea what Cmax was measured for CN1[C@H](CC(=O)c2ccccc2)CCC[C@H]1C[C@H](O)c1ccccc1 (single isomer, unassigned; epimer 2) [Epimer] ?
49.8

Any idea what Cmax was measured for CN1[C@@H](CC(=O)c2ccccc2)CCC[C@H]1C[C@H](O)c1ccccc1 [Lobeline] ?
91.2
